# studyTarget: human Farnesoid X receptor ligand-binding domain/Gal4 DNA binding domain chimera (Homo sapiens (Human), UniProt Q96RI1)
# Sequence (Q96RI1 262-486, change not shown): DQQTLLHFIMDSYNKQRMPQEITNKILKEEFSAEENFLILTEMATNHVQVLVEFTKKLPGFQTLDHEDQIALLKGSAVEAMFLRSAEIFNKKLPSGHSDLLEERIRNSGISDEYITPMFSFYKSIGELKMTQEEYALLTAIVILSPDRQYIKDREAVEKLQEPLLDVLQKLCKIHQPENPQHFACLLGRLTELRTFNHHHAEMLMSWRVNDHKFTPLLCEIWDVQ
# Sequence (P04386 1-147 partner): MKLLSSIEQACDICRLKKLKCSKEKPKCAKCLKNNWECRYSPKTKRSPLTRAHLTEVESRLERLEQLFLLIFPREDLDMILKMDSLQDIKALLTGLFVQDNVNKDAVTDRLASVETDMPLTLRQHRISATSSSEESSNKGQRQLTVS
# assayRemarks: Cell-based assay of FXR activation (FXR-UAS-bla HEK 293T beta-lactamase reporter)
# experimentalSetup: cellular FXR beta-lactamase reporter assay, FXR-UAS-bla HEK 293T cells, 16 h; pEC50 = -log EC50
pEC50: −log10 of the molar value.
Param threshold (8) applies to pEC50; output TRUE when value >= threshold, FALSE when value < threshold.

molecule="CC1(C)CC(S(=O)(=O)NC(=O)c2ccc(N3C(=O)[C@@H]4C[C@H]3C[C@H]4OCc3c(-c4c(Cl)cccc4Cl)noc3C3CC3)cc2)CCO1 (some centres unmarked) [Compound I-329]" classassignment=TRUE

Does pEC50 meet or surpass 8 for O=C(O)c1ccc(N2C[C@H]3C[C@@H]2C[C@@H]3OCc2c(-c3c(Cl)cccc3Cl)noc2C2CC2)c(F)c1 [Compound I-131] ?
FALSE

Does pEC50 meet or surpass 8 for CC(CCS(=O)(=O)NC(=O)c1ccc(N2C[C@@H]3C[C@H]2C[C@H]3OCc2c(-c3c(Cl)cccc3Cl)noc2C2CC2)cc1)OC(=O)CCC(=O)O (some centres unmarked) [Compound I-218] ?
TRUE

Does pEC50 meet or surpass 8 for CCCS(=O)(=O)NC(=O)c1ccc(N2C[C@@H]3C[C@H]2C[C@H]3OCc2c(-c3c(Cl)cccc3Cl)noc2C2CC2)cc1 [Compound I-59] ?
TRUE

Does pEC50 meet or surpass 8 for O=C(NCCS(=O)(=O)O)c1ccc(N2C[C@@H]3C[C@H]2C[C@H]3OCc2c(-c3c(Cl)cccc3Cl)noc2C2CC2)cc1 [Compound I-166] ?
FALSE

Does pEC50 meet or surpass 8 for CS(=O)(=O)NC(=O)c1ccc(N2C[C@@H]3C[C@H]2C[C@H]3OCc2c(-c3c(Cl)cccc3Cl)noc2C2CC2)cc1 [Compound I-58] ?
TRUE

* * *

# studyTarget: ligand binding domain of human FXR (Homo sapiens (Human), UniProt Q96RI1)
# assayRemarks: FXR ligand binding assay (LanthaScreen TR-FRET, SRC2-2 peptide recruitment)
# experimentalSetup: -log EC50, concentration required to produce 50% activation
Here, each record is paired with measured pEC50 data.

smilesnotation=O=C(O)c1cc(F)c2nc(N3C[C@@H]4C[C@H]3C[C@@H]4OCc3c(-c4c(Cl)cccc4Cl)noc3C3CC3)sc2c1 measvalue=>4.5
smilesnotation=O=C(O)c1ccc(N2C(=O)[C@@H]3C[C@H]2C[C@@H]3OCc2c(-c3c(Cl)cccc3Cl)noc2C2CC2)cc1 measvalue=>5.5

Sure, the documented pEC50 for `Cn1nc(C(=O)O)cc1N1C[C@@H]2C[C@H]1C[C@H]2OCc1c(-c2c(Cl)cccc2Cl)noc1C1CC1` is >6.5

* * *

Here, each record is paired with measured pEC50 data.
# studyTarget: ligand binding domain of human FXR (Homo sapiens (Human), UniProt Q96RI1)
# assayRemarks: FXR ligand binding assay (LanthaScreen TR-FRET, SRC2-2 peptide recruitment)
# experimentalSetup: -log EC50, concentration required to produce 50% activation
Response field accepts a number only; no unit should be typed.

Known pEC50 results, listed for orientation:
smilesnotation=COc1ccccc1-c1noc(C2CC2)c1CO[C@@H]1C[C@@H]2C[C@H]1CN2c1nc2c(F)cc(C(=O)O)cc2s1 studytarget="ligand binding domain of human FXR (Homo sapiens (Human), UniProt Q96RI1)" measure=pEC50 measvalue=8
smilesnotation=CO[C@@H]1CCC[C@H]1S(=O)(=O)NC(=O)c1ncc(N2C(=O)[C@@H]3C[C@H]2C[C@H]3OCc2c(-c3c(Cl)cccc3Cl)noc2C2CC2)cc1F studytarget="ligand binding domain of human FXR (Homo sapiens (Human), UniProt Q96RI1)" measure=pEC50 measvalue=8

Next, consider the following molecule.
Sure, the documented pEC50 for `O=C(NS(=O)(=O)[C@@H]1CCC[C@H]1O)c1ncc(N2C(=O)[C@@H]3C[C@H]2C[C@H]3OCc2c(-c3c(Cl)cccc3Cl)noc2C2CC2)cc1F` is 8.2

* * *

# studyTarget: human Farnesoid X receptor ligand-binding domain/Gal4 DNA binding domain chimera (Homo sapiens (Human), UniProt Q96RI1)
# assayRemarks: Cell-based assay of FXR activation (FXR-UAS-bla HEK 293T beta-lactamase reporter)
# experimentalSetup: cellular FXR beta-lactamase reporter assay, FXR-UAS-bla HEK 293T cells, 16 h; pEC50 = -log EC50
So basically: is EC50 under 2 nM? Then MET. Not under? Then NOT MET.

Observe how each entry below is paired with its result.
compound=O=C(O)c1cc(OC(F)(F)F)c2nc(N3C[C@@H]4C[C@H]3C[C@H]4OCc3c(-c4c(Cl)cccc4Cl)noc3C3CC3)sc2c1 classassignment=MET
compound=O=C(NS(=O)(=O)CCCO)c1ccc(N2C[C@@H]3C[C@H]2C[C@H]3OCc2c(-c3c(Cl)cccc3Cl)noc2C2CC2)cc1 classassignment=MET

I'd appreciate it if you could check whether `O=C(O)CCCc1ccc(N2C[C@@H]3C[C@H]2C[C@H]3OCc2c(-c3c(Cl)cccc3Cl)noc2C2CC2)c(F)c1` has EC50 smaller than 2 nM.
NOT MET

I'd appreciate it if you could check whether O=C(NS(=O)(=O)C1CCOC1)c1ccc(N2C(=O)[C@@H]3C[C@H]2C[C@H]3OCc2c(-c3c(Cl)cccc3Cl)noc2C2CC2)cc1 (stereo partly drawn) has EC50 smaller than 2 nM.
NOT MET

I'd appreciate it if you could check whether `O=C(O)c1ccc(N2C[C@@H]3C[C@H]2C[C@H]3OCc2c(-c3c(F)cccc3Cl)noc2C2CC2)c(F)c1` has EC50 smaller than 2 nM.
MET

I'd appreciate it if you could check whether `O=C(O)c1ccc(N2C[C@@H]3C[C@H]2C[C@H]3OCc2c(C3CCC4(CC3)CC4)noc2C2CC2)c(F)c1` has EC50 smaller than 2 nM.
NOT MET

I'd appreciate it if you could check whether `O=P(O)(O)Cc1ccc(N2C[C@@H]3C[C@H]2C[C@H]3OCc2c(-c3c(Cl)cccc3Cl)noc2C2CC2)cc1` has EC50 smaller than 2 nM.
NOT MET

I'd appreciate it if you could check whether `O=C(O)C1(c2ccc(N3C[C@@H]4C[C@H]3C[C@H]4OCc3c(-c4c(Cl)cccc4Cl)noc3C3CC3)cc2)CC1` has EC50 smaller than 2 nM.
NOT MET

I'd appreciate it if you could check whether `O=C(O)c1ccc(N2C(=O)[C@@H]3C[C@H]2C[C@H]3OCc2c(-c3c(Cl)cccc3Cl)noc2C2CC2)c(F)c1` has EC50 smaller than 2 nM.
NOT MET

* * *

# studyTarget: ligand binding domain of human FXR (Homo sapiens (Human), UniProt Q96RI1)
# assayRemarks: FXR ligand binding assay (LanthaScreen TR-FRET, SRC2-2 peptide recruitment)
# experimentalSetup: extent of activation relative to GW4064; read-out: % Efficacy
Here, each record is paired with measured Emax data.
Note: unit % is implicit; provide only the numeric part.

smilesnotation=O=C(NS(=O)(=O)[C@@H]1CCC[C@H]1O)c1ncc(N2C(=O)[C@@H]3C[C@H]2C[C@H]3OCc2c(-c3c(Cl)cccc3Cl)noc2C2CC2)cc1F measure=Emax unitsymbol=% measvalue=171
smilesnotation=O=C(O)CNC(=O)c1ccc(N2C[C@@H]3C[C@H]2C[C@H]3OCc2c(-c3c(Cl)cccc3Cl)noc2C2CC2)cc1 measure=Emax unitsymbol=% measvalue=140
smilesnotation=O=C(O)Cc1ccc(N2C[C@@H]3C[C@H]2C[C@H]3OCc2c(-c3c(Cl)cccc3Cl)noc2C2CC2)cc1 measure=Emax unitsymbol=% measvalue=134
smilesnotation=O=C(O)CNC(=O)c1ccc(N2C(=O)[C@@H]3C[C@H]2C[C@H]3OCc2c(-c3c(Cl)cccc3Cl)noc2C2CC2)cc1 measure=Emax unitsymbol=% measvalue=155

Sure, the documented Emax for `O=C(O)c1cc(C2CCCC2)c2nc(N3C[C@H]4C[C@@H]3C[C@@H]4OCc3c(-c4c(Cl)cccc4Cl)noc3C3CC3)sc2c1` is 116

* * *

# studyTarget: human Farnesoid X receptor ligand-binding domain/Gal4 DNA binding domain chimera (Homo sapiens (Human), UniProt Q96RI1)
# assayRemarks: Cell-based assay of FXR activation (FXR-UAS-bla HEK 293T beta-lactamase reporter)
# experimentalSetup: cellular FXR beta-lactamase reporter assay, FXR-UAS-bla HEK 293T cells, 16 h; pEC50 = -log EC50
Here, each record is paired with measured EC50 data.

Known EC50 results, listed for orientation:
smilesnotation=O=C(NS(=O)(=O)C1CC1)c1ccc(N2C(=O)[C@@H]3C[C@H]2C[C@H]3OCc2c(-c3c(Cl)cccc3Cl)noc2C2CC2)cc1 measvalue="2 nM"
smilesnotation=COc1ccc(-c2noc(C3CC3)c2CO[C@@H]2C[C@@H]3C[C@H]2CN3c2nc3c(F)cc(C(=O)O)cc3s2)cc1 measvalue="< 31.6 nM"

Sure, the documented EC50 for `O=C(NS(=O)(=O)CCO)c1ccc(N2C[C@@H]3C[C@H]2C[C@H]3OCc2c(-c3c(Cl)cccc3Cl)noc2C2CC2)cc1` is < 31.6 nM

Reference source for all entries: patent US10793568B2
